# Test system: Klebsiella pneumoniae 13249
# Method Summary: MIC, solid dilution method
# Format: cell-based
# Setup Conditions: K.p 13249, CRE clinical isolate, MHA agar, 37° C., 16-20 hours, read-out: MIC
# Description: (2) Clinical isolated strains: CRE Klebsiella pneumoniae 5846, 11544, 12559, 13249 and CSE Klebsiella pneumoniae 8733, a total of 5 strains; […] The minimum inhibitory concentrations of the compounds against the CRE and CSE strains were determined by the solid dilution method, and the results are shown in Tables 3 and 4.
Value Type: MIC

CC1(C)[C@H](NC(=O)/C(=N\O[C@@H](COc2ccc3c(c2)CN(C(=N)N[C@@H]2CCCNC2)C3)C(=O)O)c2csc(N)n2)C(=O)N1OS(=O)(=O)O | > 8 µg/mL
CC1(C)[C@H](NC(=O)/C(=N\O[C@@H](COc2ccc3c(c2)CN(C(=N)NOCCN)C3)C(=O)O)c2csc(N)n2)C(=O)N1OS(=O)(=O)O | > 8 µg/mL
CC1(C)[C@H](NC(=O)/C(=N\O[C@@H](COc2ccc(C(=N)N[C@@H]3CCCNC3)cc2)C(=O)O)c2csc(N)n2)C(=O)N1OS(=O)(=O)O [AIC499, reference compound] | > 8 µg/mL
